Source of measurements: patent USRE46585

target_entity: T1, FcRn-p3 fusion protein (human, UniProt P55899 24-297; P61769 21-119)
T1 construct: baculovirus expressed; coated on ELISA wells; not shown: amino terminal part of bacteriophage p3 protein and CVDE protein
measurement_notes: phage ELISA pH6
experimental_endpoint: Ratio/Fc-H (fold)
Form entry: value (fold) — number only.

A selection of reference data follows.
binder="T4A_37 (other, EU numbering) CPPCSAPELLGGPSVFLFPPKPKDTLMISRTPEVTCVVEDVSHEDPEVKFNWYVDGVEVHNAKTKPREEQYNSTYRVVSVLTVLHQDWLNGKEYKCKVSNKALPAPIEKTISKAKGQPREPQVYTLSPSRDELTKNQVSLTCLVKGFYPSDIVVEWESNGQPENNYKTTPPVLDSDGSFFLYSKLTVDKSRWQQGNVFSCSVMHEALHSHYTQKSLSLSPGK" experimental_endpoint=Ratio/Fc-H units_symbol=fold observed=4
binder="C6A_74D (other, EU numbering) CPRCPAPELLGGPSVFLFPPKPKDTLMISRTPEITCVVVDVSHEDPEVKFNWYVDGVEVHNAKTKPREEQYNSTYRVVSVLTVLHQDWLDGKEYKCKVSNKALPAPIEKTISKAKGQPREPQVYTLPPSRDELTKNQVSLTCLVKGFYPSDIAVEWESNGQPENNYKTTPPVLDSDGSFFLYSKLTVDKSRWQQGNVFSCSVMHEALHYHYTQKSLSLSPGK" experimental_endpoint=Ratio/Fc-H units_symbol=fold observed=18.6

Consider the record given below.
For reference, reported Ratio/Fc-H for C6A_78D (other, EU numbering) CPRCPAPELLGGPSVFLFPPKPKDTLMISRNPEVTCVVVDVSHEDPEVKFNWYVDGVEVHNAKTKPREEQYNSTYRVVSVLTVLHQDWLNGKEYKCKVSNKALPAPIEKTISKAKGQPREPQVYTLPPSRDELTKNQVSLTCLVKGFYPSDIVVEWESNGQPENNYKTTPPVLDSDGSFFLYSKLTVDKSRWQQGNVFSCSVMHEALHYHYTQKSLSLSPGK stands at 28.3
